filipin (z-score) values by entry
- System: HeLa MZ
- Test Details: filipin (cholesterol) integrated intensity within LBPA endosomes, Z-score; higher = more cholesterol in LBPA endosomes
- Condition: compound concentration in added solution (µM; 5 µl added to 20 µl cells): 10; 18 h
Counter-ions that a name gives are not always drawn.

Compound | Target Or System | filipin (z-score)
NCCNCCNCCNCCN [Tetraethylenepentamine pentahydrochloride] | HeLa MZ | -0.197
C[N+]1(C)CCC(OC(=O)C(O)(c2ccccc2)C2CCCC2)C1 (configuration not stated) [Glycopyrrolate] | HeLa MZ | -0.443
CC(C)(O)c1ccccc1CC[C@@H](SCC1(CC(=O)O)CC1)c1cccc(/C=C/c2ccc3ccc(Cl)cc3n2)c1 | HeLa MZ | -0.392
CN(C)CCOC(c1ccccc1)c1ccccc1 [Diphenhydramine hydrochloride] | HeLa MZ | -0.0904
COc1ccc2c(c1)c(CC(=O)O)c(C)n2C(=O)c1ccc(Cl)cc1 | HeLa MZ | -0.49
CO[C@H]1/C=C/O[C@@]2(C)Oc3c(C)c(O)c4c(O)c(c(/C=N/N5CCN(C)CC5)c(O)c4c3C2=O)NC(=O)/C(C)=C\C=C\[C@H](C)[C@H](O)[C@@H](C)[C@@H](O)[C@@H](C)[C@H](OC(C)=O)[C@@H]1C | HeLa MZ | -0.338
CCN(CC)CCOc1ccc(C(=C(Cl)c2ccccc2)c2ccccc2)cc1 [Clomiphene citrate (Z,E)] | HeLa MZ | 3.06
COc1ccc(/C=C/C(=O)Nc2ccccc2C(=O)O)cc1OC | HeLa MZ | -0.608
CN1CCN(CCCN2c3ccccc3Sc3ccc(C(F)(F)F)cc32)CC1 [Trifluoperazine dihydrochloride] | HeLa MZ | 3.01
CCN(CCO)CCCC(C)Nc1ccnc2cc(Cl)ccc12 (configuration not stated) [Hydroxychloroquine sulfate] | HeLa MZ | 0.821
N[C@@H](Cc1cc(I)c(Oc2ccc(O)c(I)c2)c(I)c1)C(=O)O | HeLa MZ | -0.592
C[N+](C)(C)CCOC(N)=O | HeLa MZ | -0.42
Cc1ccc(C(=O)c2ccc(CC(=O)O)n2C)cc1 [Tolmetin sodium salt dihydrate] | HeLa MZ | -0.483
C=CC(N)CCC(=O)O (configuration not stated) | HeLa MZ | -0.59
CC(C)[C@H](N)C(=O)OCCOCn1cnc2c(=O)nc(N)[nH]c21 [Valacyclovir hydrochloride] | HeLa MZ | -0.357
Cc1cccc(C)c1OCC(C)N (configuration not stated) [Mexiletine hydrochloride] | HeLa MZ | -0.576
Cc1c(NC(C)C)c(=O)n(-c2ccccc2)n1C [Isopyrin hydrochloride] | HeLa MZ | -0.531

====

- Test system: A431
- Test Details: whole-cell filipin (free cholesterol) integrated intensity, Z-score; higher = more cholesterol staining
- Condition: compound concentration in added solution (µM; 5 µl added to 20 µl cells): 10; 18 h
Where a name gives a salt, the structure may show the parent alone.
Class key for whole-cell filipin (z-score) values: group A: < -0.6; group B: ≥ -0.6 and < -0.3; group C: ≥ -0.3

Compound | Label Class
Cc1cnc(NC(=O)C2=C(O)c3ccccc3S(=O)(=O)N2C)s1 | group B
CC(CCc1ccc(O)cc1)NCCc1ccc(O)c(O)c1 (stereo not drawn) [Dobutamine hydrochloride] | group B
CCCOc1ccc(C(=O)OCCN(CC)CC)cc1N [Proparacaine hydrochloride] | group B
CC(C(=O)O)c1ccc2c(c1)Cc1cccnc1O2 (stereo not drawn) | group C
Clc1ccc(CCC(Cn2ccnc2)Sc2c(Cl)cccc2Cl)cc1 (stereo not drawn) [Butoconazole nitrate] | group C
CCSc1ccc2c(c1)N(CCCN1CCN(C)CC1)c1ccccc1S2 [Thiethylperazine dimalate] | group B
CC/C(=C(\c1ccccc1)c1ccc(OCCN(C)C)cc1)c1ccccc1 [Tamoxifen citrate] | group C
CN1CCC(OC(c2ccccc2)c2ccccc2)CC1 [Diphenylpyraline hydrochloride] | group C
Nc1nc2n[nH]nc2c(=O)[nH]1 | group A
C#C[C@]1(O)CC[C@H]2[C@@H]3[C@H](C)CC4=C(CCC(=O)C4)[C@H]3CC[C@@]21C | group A
N=C(N)NCCN1CCCCCCC1 [Guanethidine sulfate] | group A
COc1ccc2c(c1)c(CC(=O)O)c(C)n2C(=O)c1ccc(Cl)cc1 | group A
CN1CCCC(CC2c3ccccc3Sc3ccccc32)C1 (stereo not drawn) [Metixene hydrochloride] | group C
COCC(=O)Nc1c(I)c(C(=O)NCC(O)CO)c(I)c(C(=O)N(C)CC(O)CO)c1I (stereo not drawn) [Iopromide] | group B
Nc1nc(NC2CC2)c2ncn([C@H]3C=C[C@@H](CO)C3)c2n1 [Abacavir Sulfate] | group B
C=CCc1ccccc1OCC(O)CNC(C)C (stereo not drawn) [Alprenolol hydrochloride] | group C
C=C1/C(=C\C=C2/CCC[C@]3(C)[C@@H]([C@H](C)CCCC(C)C)CC[C@@H]23)C[C@@H](O)C[C@@H]1O | group B

The origin of these recorded values is the supplement of paper PMC6607015.
